Cited source: ChEMBL document CHEMBL4007452

Overview of reported Vd across a group of compounds:
assay: Apparent volume of distribution in Sprague-Dawley rat plasma at 1 mg/kg, iv measured after 24 hrs by UPLC analysis; format: ADME, organism-based; conditions: read-out: Vz

{"chemical-smiles": "NS(=O)(=O)c1cccc2c1C(=O)C=C(Nc1ccccc1N1CCNCC1)C2=O", "Vd [L/kg]": 4.94}
{"chemical-smiles": "COc1cc2ncnc(Nc3ccc(F)c(Cl)c3)c2cc1OCCCN1CCOCC1", "Vd [L/kg]": 6.68}

###

experiment: MRT (0 to t) in Sprague-Dawley rat plasma at 1 mg/kg, iv measured after 24 hrs by UPLC analysis; type: ADME, organism-based
metric-name: MRT last at 24 h (h)

{"chemical-smiles": "COc1cc2ncnc(Nc3ccc(F)c(Cl)c3)c2cc1OCCCN1CCOCC1", "value-measured": 2.12}
{"chemical-smiles": "NS(=O)(=O)c1cccc2c1C(=O)C=C(Nc1ccccc1N1CCNCC1)C2=O", "value-measured": 0.55}

###

Overview of reported bioavailability across a group of compounds:
assay: Oral bioavailability in Sprague-Dawley rat at 10 mg/kg measured after 24 hrs by UPLC analysis; type: ADME, organism-based; settings: in vivo

{"chemical-smiles": "NS(=O)(=O)c1cccc2c1C(=O)C=C(Nc1ccccc1N1CCNCC1)C2=O", "bioavailability / %": 44.7}
{"chemical-smiles": "COc1cc2ncnc(Nc3ccc(F)c(Cl)c3)c2cc1OCCCN1CCOCC1", "bioavailability / %": 47.4}

###

test: Initial plasma concentration in Sprague-Dawley rat at 1 mg/kg, iv measured after 24 hrs by UPLC analysis; type: ADME, organism-based

{"chemical-smiles": "NS(=O)(=O)c1cccc2c1C(=O)C=C(Nc1ccccc1N1CCNCC1)C2=O", "C0 at 24 h / ng/mL": 382}
{"chemical-smiles": "COc1cc2ncnc(Nc3ccc(F)c(Cl)c3)c2cc1OCCCN1CCOCC1", "C0 at 24 h / ng/mL": 715}

###

Overview of reported AUC(0-inf) across a group of molecules:
experiment: AUC (0 to infinity) in Sprague-Dawley rat plasma at 10 mg/kg, po measured after 24 hrs by UPLC analysis; type: ADME, organism-based; set-up: dose 10 mg/kg, route oral, time infinity
metric-name: AUC(0-inf) (ng·h/mL)

{"molecule": "NS(=O)(=O)c1cccc2c1C(=O)C=C(Nc1ccccc1N1CCNCC1)C2=O", "result-unit": "ng·h/mL", "value-measured": 889}
{"molecule": "COc1cc2ncnc(Nc3ccc(F)c(Cl)c3)c2cc1OCCCN1CCOCC1 [GEFITINIB]", "result-unit": "ng·h/mL", "value-measured": 2370}

###

test: Cmax in Sprague-Dawley rat plasma at 1 mg/kg, iv measured after 24 hrs by UPLC analysis; format: ADME, organism-based; set-up: dose 1 mg/kg, route intravenous

{"compound": "NS(=O)(=O)c1cccc2c1C(=O)C=C(Nc1ccccc1N1CCNCC1)C2=O", "Cmax, ng/mL": 359}
{"compound": "COc1cc2ncnc(Nc3ccc(F)c(Cl)c3)c2cc1OCCCN1CCOCC1 [GEFITINIB]", "Cmax, ng/mL": 621}

###

assay: Clearance in Sprague-Dawley rat plasma at 1 mg/kg, iv measured after 24 hrs by UPLC analysis; format: ADME, organism-based

{"chemical-smiles": "NS(=O)(=O)c1cccc2c1C(=O)C=C(Nc1ccccc1N1CCNCC1)C2=O", "result-unit": "mL/min/kg", "clearance": 87.7}

###

assay: Terminal half life in Sprague-Dawley rat plasma at 10 mg/kg, po measured after 24 hrs by UPLC analysis; format: ADME, organism-based; conditions: read-out: beta t1/2 (converted)

{"chemical-smiles": "COc1cc2ncnc(Nc3ccc(F)c(Cl)c3)c2cc1OCCCN1CCOCC1", "half-life": "2.17 h"}
{"chemical-smiles": "NS(=O)(=O)c1cccc2c1C(=O)C=C(Nc1ccccc1N1CCNCC1)C2=O", "half-life": "1.98 h"}

###

assay: Terminal half life in Sprague-Dawley rat plasma at 1 mg/kg, iv measured after 24 hrs by UPLC analysis; assay type: ADME, organism-based; settings: read-out: beta t1/2 (converted)
Overview of reported half-life across a group of molecules:
metric-name: half-life (h)

{"chemical-smiles": "COc1cc2ncnc(Nc3ccc(F)c(Cl)c3)c2cc1OCCCN1CCOCC1", "result-unit": "h", "value-measured": 2.39}
{"chemical-smiles": "NS(=O)(=O)c1cccc2c1C(=O)C=C(Nc1ccccc1N1CCNCC1)C2=O", "result-unit": "h", "value-measured": 0.71}

###

Overview of reported Tmax across a group of compounds:
experiment: Tmax in Sprague-Dawley rat plasma at 10 mg/kg, po measured after 24 hrs by UPLC analysis; format: ADME, organism-based

{"compound": "COc1cc2ncnc(Nc3ccc(F)c(Cl)c3)c2cc1OCCCN1CCOCC1 [GEFITINIB]", "Tmax, min": 60}
{"compound": "NS(=O)(=O)c1cccc2c1C(=O)C=C(Nc1ccccc1N1CCNCC1)C2=O", "Tmax, min": 30}

###

test: MRT (0 to infinity) in Sprague-Dawley rat plasma at 10 mg/kg, po measured after 24 hrs by UPLC analysis; format: ADME, organism-based
Overview of reported MRT inf across a group of compounds:

{"compound": "COc1cc2ncnc(Nc3ccc(F)c(Cl)c3)c2cc1OCCCN1CCOCC1 [GEFITINIB]", "MRT inf": "2.49 h"}
{"compound": "NS(=O)(=O)c1cccc2c1C(=O)C=C(Nc1ccccc1N1CCNCC1)C2=O", "MRT inf": "2.25 h"}

###

test system: MCF-10A; assay: Antiproliferative activity against human MCF10A cells after 24 hrs by MTT assay; type: cell-based
metric-name: IC50 (µM)

{"chemical-smiles": "NS(=O)(=O)c1cccc2c1C(=O)C=C(Nc1ccccc1N1CCNCC1)C2=O", "value-measured": 129}

###

experiment: MRT (0 to t) in Sprague-Dawley rat plasma at 10 mg/kg, po measured after 24 hrs by UPLC analysis; type: ADME, organism-based
metric-name: MRT last at 24 h (h)

{"chemical-smiles": "NS(=O)(=O)c1cccc2c1C(=O)C=C(Nc1ccccc1N1CCNCC1)C2=O", "value-measured": 1.87}
{"chemical-smiles": "COc1cc2ncnc(Nc3ccc(F)c(Cl)c3)c2cc1OCCCN1CCOCC1", "value-measured": 2.4}

###

molecular target: UniProtKB P40763; experiment: Displacement of 5-FAM-SpYLPQTV from STAT3 (unknown origin) at pY705 site after 30 mins by fluorescence polarization assay
Sequence (P40763 whole entry): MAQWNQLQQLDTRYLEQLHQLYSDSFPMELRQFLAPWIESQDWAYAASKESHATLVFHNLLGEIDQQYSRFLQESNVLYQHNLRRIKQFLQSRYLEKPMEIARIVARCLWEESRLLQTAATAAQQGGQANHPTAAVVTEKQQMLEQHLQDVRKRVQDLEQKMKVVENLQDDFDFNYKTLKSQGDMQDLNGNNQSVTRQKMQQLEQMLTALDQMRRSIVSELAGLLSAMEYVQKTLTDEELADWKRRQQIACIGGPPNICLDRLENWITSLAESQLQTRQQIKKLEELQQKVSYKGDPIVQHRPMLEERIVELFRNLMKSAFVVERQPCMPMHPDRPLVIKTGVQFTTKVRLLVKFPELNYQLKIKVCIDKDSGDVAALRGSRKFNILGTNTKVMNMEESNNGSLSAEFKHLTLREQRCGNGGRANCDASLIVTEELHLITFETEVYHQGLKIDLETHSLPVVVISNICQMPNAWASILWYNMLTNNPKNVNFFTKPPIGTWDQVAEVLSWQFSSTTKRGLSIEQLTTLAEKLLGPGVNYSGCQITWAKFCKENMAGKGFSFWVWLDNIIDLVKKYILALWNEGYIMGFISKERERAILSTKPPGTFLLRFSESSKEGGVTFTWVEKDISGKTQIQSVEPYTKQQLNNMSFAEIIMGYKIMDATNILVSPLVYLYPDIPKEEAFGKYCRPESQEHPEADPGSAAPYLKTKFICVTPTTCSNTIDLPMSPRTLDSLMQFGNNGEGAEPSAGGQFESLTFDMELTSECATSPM

{"chemical-smiles": "NS(=O)(=O)c1cccc2c1C(=O)C=C(Nc1ccccc1N1CCNCC1)C2=O", "Ki / nM": 440}

###

experiment: MRT (0 to infinity) in Sprague-Dawley rat plasma at 1 mg/kg, iv measured after 24 hrs by UPLC analysis; assay type: ADME, organism-based

{"chemical-smiles": "COc1cc2ncnc(Nc3ccc(F)c(Cl)c3)c2cc1OCCCN1CCOCC1", "MRT inf / h": 2.4}
{"chemical-smiles": "NS(=O)(=O)c1cccc2c1C(=O)C=C(Nc1ccccc1N1CCNCC1)C2=O", "MRT inf / h": 0.71}
